These data points were gathered from ChEMBL document CHEMBL2321814.

# measured-target: Carbonic anhydrase 1 (Homo sapiens, UniProt P00915)
# Sequence (P00915 whole entry, canonical isoform): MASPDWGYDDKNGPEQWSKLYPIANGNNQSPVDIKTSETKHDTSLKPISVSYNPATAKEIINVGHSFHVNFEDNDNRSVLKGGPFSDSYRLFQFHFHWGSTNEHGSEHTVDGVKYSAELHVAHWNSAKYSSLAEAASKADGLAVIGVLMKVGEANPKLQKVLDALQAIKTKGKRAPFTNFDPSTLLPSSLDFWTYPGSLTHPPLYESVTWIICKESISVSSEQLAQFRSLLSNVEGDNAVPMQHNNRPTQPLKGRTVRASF
# experiment: Inhibition of full length human recombinant CA1 cytosolic isoform after 6 hrs by stopped-flow CO2 hydration method
pKi: −log10 of the molar value.
This listing pairs molecules with measured pKi.

Observe how each entry below is paired with its result.
smiles | pKi
O=S1(=O)C=Cc2cc(Cl)cc(Cl)c2O1 | < 4.00
O=S1(=O)C=Cc2c(ccc3ccccc23)O1 | < 4.00

Now look at this one.
Requested read-out: pKi. Entry: O=S1(=O)C=Cc2cc(Br)ccc2O1
< 4.00

----------
# measured-target: Carbonic anhydrase 2 (Homo sapiens, UniProt P00918, A65S/N67Q)
# experiment: Inhibition of human CA2 Ala65Ser and Asn67Gln double mutant expressed in Escherichia coli strain BL21 (DE3) after 6 hrs by stopped-flow CO2 hydration method
In this section we review reported pKi values for a set of compounds.
Scale for pKi: -log10 of concentration given in mol/L; no unit attached.

Sample records with pKi:
smiles | measured-target | reported-value
O=S1(=O)C=Cc2cc(Br)ccc2O1 | Carbonic anhydrase 2 (Homo sapiens, UniProt P00918, A65S/N67Q) | 6.03
O=S1(=O)C=Cc2cc(O)ccc2O1 | Carbonic anhydrase 2 (Homo sapiens, UniProt P00918, A65S/N67Q) | 6.10

Consider the record given below.
Which pKi value is on record for O=S1(=O)C=Cc2cc(OCc3ccccc3)ccc2O1 ?
5.63
